Tested on: IFN-β secretion by THP-1 cells
experimentalProtocol: Activation of IFN-β secretion by THP-1 cells (Human IFN-beta ELISA)
Assay type: cell-based
runParameters: THP-1 cells, 24 hours, IFN-β ELISA; diammonium salt
Structures can show the parent of a compound that is named as a salt.
Recorded measurements of EC50, one per entry
measurementKind: EC50

molecule="Nc1nc2c(ncn2[C@@H]2O[C@@H]3CO[P@@](=O)(S)OC4C(F)[C@H](n5cnc6c(N)nc(Cl)nc65)O[C@@H]4CO[P@](=O)(S)OC3C2O)c(=O)[nH]1 (some centres unmarked) [Example 15, diammonium salt]" recordedresult="10.1 to 100 µM"
molecule="Nc1nc2c(ncn2[C@@H]2O[C@@H]3CO[P@@](=O)(S)OC4C(F)[C@H](n5cnc6c(N)nc(Cl)nc65)O[C@@H]4CO[P@](=O)(S)OC3C2O)c(=O)[nH]1 (some centres unmarked) [Example 16, diammonium salt]" recordedresult="1 to 10 µM"
